B1: library; numbered along this chain (parent)
chain: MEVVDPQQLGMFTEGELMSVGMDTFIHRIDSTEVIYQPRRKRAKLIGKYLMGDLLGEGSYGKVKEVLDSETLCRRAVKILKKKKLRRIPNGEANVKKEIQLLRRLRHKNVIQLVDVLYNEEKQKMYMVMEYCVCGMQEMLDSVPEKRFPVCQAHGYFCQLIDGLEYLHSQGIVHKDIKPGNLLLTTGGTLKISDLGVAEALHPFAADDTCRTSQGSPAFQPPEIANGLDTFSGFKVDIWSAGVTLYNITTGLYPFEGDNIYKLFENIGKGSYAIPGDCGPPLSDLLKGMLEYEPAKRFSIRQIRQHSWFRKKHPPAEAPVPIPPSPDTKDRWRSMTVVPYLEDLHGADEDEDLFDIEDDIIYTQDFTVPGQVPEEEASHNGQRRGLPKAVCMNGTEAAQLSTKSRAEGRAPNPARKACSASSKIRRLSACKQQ

Variants of: B1
test: STK11 functional score (HeLa growth suppression), rescaled enrichment; synonymous median = 1, nonsense median = 0 (normalised score)
test-context: with HeLa; variant type: missense
metric: STK11 functional score
Answers are plain numbers.

- mutation: "I424A"
  STK11 functional score: 1.58
- mutation: "K81P"
  STK11 functional score: 0.992
- mutation: "G408K"
  STK11 functional score: 1.56
- mutation: "P6R"
  STK11 functional score: 1.29
- mutation: "P339A"
  STK11 functional score: 1
- mutation: "S307G"
  STK11 functional score: 0.664
- mutation: "D176R"
  STK11 functional score: -0.0226
- mutation: "H379S"
  STK11 functional score: 1.55

For each of the variants below, note its STK11 functional score.
1. R39H
2. S232L
3. K62D
4. A414F
5. R147Y
6. K235L
7. M125D
8. I267R

Result:
1: 1.13; 2: 0.996; 3: 1.61; 4: 1.38; 5: 1.47; 6: 1.24; 7: 0.704; 8: 1.01

For each of the variants below, note its STK11 functional score.
1. H174K
2. N393C
3. P149D
4. K78S

Result:
1: 0.153; 2: 1.54; 3: 0.598; 4: -0.111

For each of the variants below, note its STK11 functional score.
1. N226R
2. I161V

Result:
[1.51, 0.514]
